assay: qHTS assay for small molecules that induce genotoxicity in human embryonic kidney cells expressing luciferase-tagged ATAD5 - cell viability (AID 651634); details: HEK293T ATAD5-luc cells viability, CellTiter-Fluor, 15.5 h; series mostly up to 83.3 µM; note: nearly all actives have a fitted effect of over 25% in size
Results filed as inconclusive are left out. Calls of active or inactive are those of the source. Calls come from the whole dose curve.
The categories you may choose from are T for active, F for inactive

• O[C@@H](c1cc(C(F)(F)F)nc2c(C(F)(F)F)cccc12)[C@H]1CCCCN1 = T
• c1cc2c3c(c1)ccc1cccc(c13)C2 = F
• CC(COC(=O)c1ccccc1)OC(=O)c1ccccc1 (stereo unspecified) = F
• O=C1OC(OC(=O)c2cccnc2Nc2cccc(C(F)(F)F)c2)c2ccccc21 (stereo unspecified) = F
• CCN(CC)CCOC(=O)C1(C2CCCCC2)CCCCC1 = F

Prompt: Fill in: this test's call for CCCCCCCCCCCC(=O)N(CC)CC is ___
Completion: F

Prompt: Give the logged outcome of this assay for the following compound: O=C1NCCN1CCN1CCC(c2cn(-c3ccc(F)cc3)c3ccc(Cl)cc23)CC1
Completion: T

Prompt: State the result this test recorded for O=C1c2c(O)ccc([N+](=O)[O-])c2C(=O)c2c([N+](=O)[O-])ccc(O)c21 .
Completion: T

Prompt: // outcome(item) with item = NC(=O)c1ccccc1N
Completion: F

Prompt: Could you kindly confirm the outcome this assay logged for Cc1c(C)n(Cc2ccccc2)c2ccc(C(=O)OCCN(C)C)cc12 ?
Completion: F

Prompt: For this compound, state the assay outcome: CCC(C)c1cc([N+](=O)[O-])cc([N+](=O)[O-])c1OC(=O)OC(C)C (stereo unspecified)
Completion: T

----------
experiment: qHTS assay to identify small molecule agonists of the TGF-beta/Smad signaling pathway (AID 1346859); conditions: SBE-bla HEK293T, TGF-beta/Smad beta-lactamase reporter, 5 h; series mostly up to 76.8 µM; note: % is set by controls: 0 for no effect and ±100 for the full control effect
Inconclusive results are not listed. The source made the active and inactive calls. Calls follow the shape of the dose curve; as a rule, active = well fitted activation curve with a large enough effect in the signal ratio in the repeat runs (not every such curve was filed as active); inconclusive = weak or mixed curves; inactive = flat fitted curve, though single readings scatter; the % refers to the signal ratio.
Reported endpoint: activation

* C=C[C@](C)(O)CC[C@@H]1[C@@]2(C)CCCC(C)(C)[C@@H]2CC[C@@]1(C)O | inactive
* O=C(O)CCCCCCC(=O)O | inactive
* CC(C)CCOCCC(C)C | inactive
* NCCCC(O)(P(=O)(O)O)P(=O)(O)O | inactive
* C=C1C(C)(C)[C@@]2(Cl)C(Cl)[C@]1(Cl)C(Cl)(Cl)C2(Cl)Cl (stereo partly specified) | inactive
* CSc1ccc2c(c1)N(CCC1CCCCN1C)c1ccccc1S2 (stereo unspecified) | inactive

The molecule CCc1ccc(O)c(C(C)(C)C)c1 showed activation equal to inactive

Entry CO[C@H]1C=CO[C@@]2(C)Oc3c(C)c(O)c4c(O)c(cc(O)c4c3C2=O)NC(=O)/C(C)=C\C=C/[C@H](C)[C@H](O)[C@@H](C)[C@@H](O)[C@@H](C)[C@H](OC(C)=O)[C@@H]1C — recorded activation = inactive

Reported activation ( CCCCCCC(C)OC(=O)COc1nc(F)c(Cl)c(N)c1Cl (stereo unspecified) ) = inactive

Item: OCCCS | activation: inactive

----------
test: qHTS assay to identify small molecule antagonists of the estrogen related receptor signaling pathway with the pleiotropic PPARgamma coactivator (PGC) from Tox21 10K library - cell viability counter screen (AID 1224840); conditions: PGC/ERR reporter cells viability, CellTiter-Fluor, 17.5 h; series mostly up to 92.4 µM; note: % is set by controls: 0 for no effect and ±100 for the full control effect; nearly all actives have a fitted effect of over 40% in size
Results filed as inconclusive are left out. Calls of active or inactive are those of the source. Calls come from the whole dose curve; as a rule, active = well fitted cell-killing curve with a large enough effect in the repeat runs (not every such curve was filed as active); inconclusive = weak or mixed curves, or effect the other way; inactive = no such curve, though single readings can be large or run the other way.
Reported endpoint: viability change, negative = cytotoxic

- O=S(O)O: -6.77% [at 19 µM] (inactive)
- COc1cc(C(C)C)c2c(c1)S(=O)(=O)N(COc1cc(=O)n3cccc(OCCN4CCCCC4)c3n1)C2=O: -15.4% [at 19 µM] (inactive)
- O=C=NCc1cccc(CN=C=O)c1: -5.21% [at 19 µM] (inactive)
- CCC(=O)CC(C)CC (stereo not drawn): 0.87% [at 0.349 µM] (inactive)
- O=S(=O)(O)c1cc(S(=O)(=O)O)c2ccc3c(S(=O)(=O)O)cc(S(=O)(=O)O)c4ccc1c2c43: 1.08% [at 19 µM] (inactive)
- N[C@@H](CSSC[C@H](N)C(=O)O)C(=O)O: 6.11% [at 0.349 µM] (inactive)
- CCCCCCCCCCCCCCCCCO: -0.916% [at 19 µM] (inactive)

Next molecule, please.
viability change, negative = cytotoxic recorded for this molecule, CCN1CCN(c2cc(-c3ccc(F)cc3)c3c(n2)CCCCCC3)CC1 , is 18% [at 19 µM] (inactive)

----------
Assay: A CellTox Green Cytotoxicity Assay to monitor cytotoxicity in HEK293 cells - 40 hour (AID 1224871); note: nearly all actives have a fitted effect of over 45% in size
Settings: CellTox Green fluorescence; series mostly up to 76.8 µM
Description: National Center for Advancing Translational Sciences [NCATS] NIH Chemical Genomics Center [NCGC] U.S. Environmental Protection Agency [EPA] National Institutes of Environmental Health Sciences [NIEHS] National Toxicology Program [NTP] Cell-based models are critical for drug discovery. […] Viable cells produce no appreciable increases in fluorescence. Therefore, the fluorescence signal produced by the binding interaction with dead cell DNA is proportional to cytotoxicity. […]
Inconclusive results are not listed. Activity calls are given as the source filed them. Calls follow the shape of the dose curve; as a rule, active = well fitted activation curve with a large enough effect in the repeat runs; inconclusive = weak or mixed curves; inactive = flat fitted curve, though single readings scatter.
// classify into active, inactive

Examples with answers:
* CC(C)c1cccc(C(C)C)c1N1C(=O)c2ccc(O)cc2C1=O | active
* C=CC(=O)OCCN(CC)CC | inactive
* CC(COC(=O)c1ccccc1)OC(=O)c1ccccc1 (centres undefined) | inactive

Prompt: Call for entry NC(=O)c1ccccc1N :
Completion: inactive

Prompt: I'd appreciate the recorded outcome for c1cc[nH]c1 from this test.
Completion: inactive

----------
biological target: Nuclear receptor subfamily 1 group I member 3 (Homo sapiens) (UniProt Q14994); experiment: qHTS assay to identify small molecule agonists of the constitutive androstane receptor (CAR) signaling pathway (AID 1224839); conditions: HepG2 hCAR CYP2B6-luciferase, agonist mode, 24 h; series mostly up to 92.4 µM; note: nearly all actives have a fitted effect of over 15% in size;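 for activation: HepG2 cells stably carrying human CAR and a CYP2B6 luciferase reporter; % is set by controls: 0 for no effect and ±100 for the full control effect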
Sequence (Q14994 whole entry, looked up): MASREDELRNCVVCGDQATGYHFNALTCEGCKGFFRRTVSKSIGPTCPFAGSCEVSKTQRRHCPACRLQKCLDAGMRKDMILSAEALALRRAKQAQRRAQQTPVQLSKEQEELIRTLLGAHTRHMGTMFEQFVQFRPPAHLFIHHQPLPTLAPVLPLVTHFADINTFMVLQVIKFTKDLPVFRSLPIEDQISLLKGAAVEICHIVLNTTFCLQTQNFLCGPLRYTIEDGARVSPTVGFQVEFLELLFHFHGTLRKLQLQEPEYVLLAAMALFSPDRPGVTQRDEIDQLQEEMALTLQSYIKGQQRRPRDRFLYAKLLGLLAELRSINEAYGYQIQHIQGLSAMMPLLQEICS
Inconclusive results are not listed. Calls of active or inactive are those of the source. The call rests on the fitted dose curve; in most records, active means well fitted activation curve with a large enough effect in the repeat runs; inconclusive means weak or mixed curves; inactive means no such curve, though single readings can be large or run the other way.
In this exercise, the only acceptable responses are yes = active, no = inactive

Worked examples follow.
* CC(=O)OC(OC(C)=O)c1ccc([N+](=O)[O-])o1 | no
* CCCCCCOc1cc(C)c(O)c(C)c1C | yes
* Cc1c(C)n(Cc2ccccc2)c2ccc(C(=O)OCCN(C)C)cc12 | yes

Prompt: Test call, this compound: C#CC(O)CCC (stereo not drawn)
Completion: no

Prompt: Kindly provide the recorded test outcome for the following compound: CC(C)c1ccccc1N
Completion: no

Prompt: Entry C/C=C/C=N/NC(=O)c1ccncc1 : call = ?
Completion: no

Prompt: Give the logged outcome of this assay for the following compound: O=C1OC(OC(=O)c2cccnc2Nc2cccc(C(F)(F)F)c2)c2ccccc21 (stereo not drawn)
Completion: no

Prompt: Recorded test outcome, item CCc1cccc(C)c1
Completion: no

Prompt: Returns: the outcome recorded for CCCCCCCCCCCC(=O)N(CC)CC in this assay.
Completion: yes

Prompt: State the result this test recorded for Cc1cc2c(C(C)C)c(O)c(O)c(C=O)c2c(O)c1-c1c(C)cc2c(C(C)C)c(O)c(O)c(C=O)c2c1O .
Completion: no

Prompt: What was the test verdict on Cc1cnccn1 ?
Completion: no

Prompt: Recorded test call requested for COC(=O)[C@]1(C)CCC[C@@]2(C)[C@H]1CC=C1C=C(C(C)C)CC[C@@H]12
Completion: no

Prompt: Hello, I am checking results. What call was entered for O=C1Nc2ccc(Cl)cc2[C@@](C#CC2CC2)(C(F)(F)F)O1 ?
Completion: no

----------
test: qHTS assay to identify small molecule antagonists of the androgen receptor (AR) signaling pathway - cell viability counter screen (AID 743033; note: nearly all actives have a fitted effect of over 45% in size); conditions: AR-bla HEK293 viability, CellTiter-Glo luminescence, 16 h; series mostly up to 58.5 µM
Inconclusive results are not listed. Activity calls are given as the source filed them. Calls follow the shape of the dose curve; as a rule, active = well fitted cell-killing curve with a large enough effect in the repeat runs; inconclusive = weak or mixed curves; inactive = no such curve, though single readings can be large or run the other way.
Return exactly one item of 1.0 for active, 0.0 for inactive

• CCCCCCCC/C=C\CCCCCCCC(=O)OCCOC(=O)CCCCCCC/C=C\CCCCCCCC = 0.0
• Oc1c(Br)cc(Br)c2cccnc12 = 0.0
• CCCCCCC(C)OC(=O)COc1nc(F)c(Cl)c(N)c1Cl (stereo not drawn) = 0.0
• Clc1ccc(C(Cn2ccnc2)OCc2c(Cl)cccc2Cl)c(Cl)c1 (stereo not drawn) = 0.0
• CC(C)(C)CC(C)(C)c1ccccc1O = 1.0

Prompt: Hi, do you know how CCc1cccc(C)c1 came out in this test?
Completion: 0.0

Prompt: For O=C1c2c(O)ccc([N+](=O)[O-])c2C(=O)c2c([N+](=O)[O-])ccc(O)c21 , what call appears in the results of this test?
Completion: 1.0

Prompt: Any idea what this test logged for Cc1nc(Nc2ncc(C(=O)Nc3c(C)cccc3Cl)s2)cc(N2CCN(CCO)CC2)n1 ?
Completion: 0.0

Prompt: # outcome recorded in this test, key = CCCCCCCCCCCCCC[n+]1ccccc1
Completion: 1.0

Prompt: Each compound tested received a call. Report the one for CCN1CCN(c2cc(-c3ccc(F)cc3)c3c(n2)CCCCCC3)CC1 .
Completion: 0.0
